- Measurement protocol: elogD / log D determination

[
  {
    "Compound": "Fc1ccc2c(CNCC3(N4CCC(F)C4)COC3)c[nH]c2c1 (centres unmarked)",
    "chromatographic logD": 0.95
  },
  {
    "Compound": "O=C(C1CC1)N1CCN(S(=O)(=O)c2ccc(OC(F)(F)F)cc2)CC1",
    "chromatographic logD": 0.79
  }
]

----------
- Assay target: FTO (Homo sapiens (Human))
- Measurement protocol: Fluorescence enzymatic inhibition assay (m6A7-Broccoli RNA / DFHBI-1T) against FTO
- Format: biochemical
- Condition: m6A7-Broccoli fluorescence assay, 0.250 μM FTO, inhibitor up to 40 μM, triplicate; read-out: Enzymatic IC50 FTO
pIC50: −log10 of the molar value.
Quantity: pIC50

[
  {
    "Compound": "Cc1ccc2cc(-c3cncnc3)ccc2n1",
    "Quantity": "pIC50",
    "Value measured": 4.54
  },
  {
    "Compound": "COc1ncc(-c2ccc3nc(N)sc3c2)cn1",
    "Quantity": "pIC50",
    "Value measured": 5.47
  },
  {
    "Compound": "FC1CCN(C2(CNCc3ccc(-c4ccccc4)o3)COC2)C1 (stereo not drawn)",
    "Quantity": "pIC50",
    "Value measured": 5.70
  },
  {
    "Compound": "c1ccc2c(CNCC3(N4CCCC4)COC3)c[nH]c2c1",
    "Quantity": "pIC50",
    "Value measured": 6.00
  },
  {
    "Compound": "Cc1ccc2c(CNCC3(N4CCCC4)COC3)c[nH]c2c1",
    "Quantity": "pIC50",
    "Value measured": 5.52
  },
  {
    "Compound": "Oc1ccc2cc(-c3cncnc3)ccc2c1",
    "Quantity": "pIC50",
    "Value measured": 4.38
  }
]

----------
- Assay target: FTO (Homo sapiens (Human), UniProt Q9C0B1)
- Sequence (Q9C0B1 whole entry): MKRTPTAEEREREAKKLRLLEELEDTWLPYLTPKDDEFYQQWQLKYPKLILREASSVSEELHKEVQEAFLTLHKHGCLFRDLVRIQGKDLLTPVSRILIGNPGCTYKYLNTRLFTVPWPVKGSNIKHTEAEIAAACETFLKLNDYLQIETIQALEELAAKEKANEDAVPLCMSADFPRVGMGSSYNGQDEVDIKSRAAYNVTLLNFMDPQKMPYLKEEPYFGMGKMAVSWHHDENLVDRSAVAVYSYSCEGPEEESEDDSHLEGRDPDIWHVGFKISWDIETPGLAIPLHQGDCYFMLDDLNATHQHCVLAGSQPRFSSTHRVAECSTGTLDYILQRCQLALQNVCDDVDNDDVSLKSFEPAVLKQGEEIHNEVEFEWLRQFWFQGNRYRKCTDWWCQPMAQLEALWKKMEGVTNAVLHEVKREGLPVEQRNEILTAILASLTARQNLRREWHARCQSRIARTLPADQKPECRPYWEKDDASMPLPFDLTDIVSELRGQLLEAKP
- Measurement protocol: Fluorescence enzymatic inhibition assay (m6A7-Broccoli RNA / DFHBI-1T) against FTO
- Assay type: biochemical
- Condition: Table 800 compounds; read-out: FTO IC50

[
  {
    "Compound": "O=S(=O)(Nc1cccc(O)c1)c1ccc(OC(F)(F)F)cc1 [TR-ALKBH5-39]",
    "IC50": "> 40 µM"
  },
  {
    "Compound": "O=S(=O)(NCc1ccccn1)c1ccc(OC(F)(F)F)cc1 [TR-ALKBH5-32]",
    "IC50": "> 40 µM"
  },
  {
    "Compound": "O=S(=O)(Nc1ccccc1N1CCCCC1)c1ccc(OC(F)(F)F)cc1 [TR-ALKBH5-36]",
    "IC50": "23.2 µM"
  },
  {
    "Compound": "O=S(=O)(Nc1ccc(F)c(Cl)c1)c1ccc(OC(F)(F)F)cc1 [TR-ALKBH5-38]",
    "IC50": "27.6 µM"
  },
  {
    "Compound": "O=S(=O)(Nc1cc(F)ccc1O)c1ccc(OC(F)(F)F)cc1 [TR-ALKBH5-30]",
    "IC50": "> 40 µM"
  }
]

----------
- Assay target: ALKBH5 (Homo sapiens (Human), UniProt Q6P6C2)
- Sequence (Q6P6C2 whole entry): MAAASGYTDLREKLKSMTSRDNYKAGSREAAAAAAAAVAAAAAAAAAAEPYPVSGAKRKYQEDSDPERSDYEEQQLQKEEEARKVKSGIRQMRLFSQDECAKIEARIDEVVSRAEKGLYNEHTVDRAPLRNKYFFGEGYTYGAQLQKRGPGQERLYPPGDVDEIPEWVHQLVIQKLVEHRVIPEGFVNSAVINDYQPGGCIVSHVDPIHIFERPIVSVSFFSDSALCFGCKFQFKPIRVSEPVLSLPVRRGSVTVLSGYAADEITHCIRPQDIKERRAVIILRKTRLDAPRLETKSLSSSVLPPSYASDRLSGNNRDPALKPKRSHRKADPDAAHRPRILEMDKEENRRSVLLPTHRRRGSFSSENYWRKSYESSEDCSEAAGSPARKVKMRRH
- Measurement protocol: Fluorescence enzymatic inhibition assay (m6A7-Broccoli RNA / DFHBI-1T) against ALKBH5
- Type: biochemical
- Condition: Table 800 compounds; read-out: ALKBH5 IC50
# key: entry, value: log10 IC50
Quantity: log10 IC50 (log10 of the value in µM)

[
  {
    "Molecule": "O=S(=O)(Nc1ccccc1N1CCCCC1)c1ccc(OC(F)(F)F)cc1",
    "log10 IC50": -0.40
  },
  {
    "Molecule": "O=S(=O)(NCC1CCCOC1)c1ccc(OC(F)(F)F)cc1 (stereo not shown)",
    "log10 IC50": -0.62
  },
  {
    "Molecule": "O=S(=O)(Nc1cc(Cl)ccc1O)c1ccc(OC(F)(F)F)cc1",
    "log10 IC50": -0.96
  },
  {
    "Molecule": "O=S(=O)(Nc1cccc(O)c1)c1ccc(OC(F)(F)F)cc1",
    "log10 IC50": 0.49
  },
  {
    "Molecule": "C[C@@H](NS(=O)(=O)c1ccc(OC(F)(F)F)cc1)c1cccnc1",
    "log10 IC50": -0.60
  },
  {
    "Molecule": "O=S(=O)(Nc1nccnc1O)c1ccc(OC(F)(F)F)cc1",
    "log10 IC50": 1.14
  },
  {
    "Molecule": "O=S(=O)(Nc1ccc(Cl)c(C(F)(F)F)c1)c1ccc(OC(F)(F)F)cc1",
    "log10 IC50": 0.20
  },
  {
    "Molecule": "O=S(=O)(Nc1cc(F)ccc1O)c1ccc(OC(F)(F)F)cc1",
    "log10 IC50": 0.00
  },
  {
    "Molecule": "CN(CCCN1c2ccccc2CCc2ccccc21)S(=O)(=O)c1ccc(OC(F)(F)F)cc1",
    "log10 IC50": 0.36
  },
  {
    "Molecule": "CC(=O)c1ccc(S(=O)(=O)NCC2CCCOC2)cc1 (stereo not shown)",
    "log10 IC50": 0.28
  }
]
